Tested on: Mgal-WhiA (Mycoplasma gallisepticum S6, UniProt A0A0F6CKV5 1-295)
Method: MST; no ATP; Hill n = 1.8 ± 0.2; EMSA: 20 mM carbonate pH 9.8, 6% glycerol, 37 C 10 min, gel at 10 C; MST: PBS (10 mM Na phosphate pH 7.4, 140 mM NaCl, 3 mM KCl), 0.05% Tween-20, 50 mM imidazole, 50 nM duplex, 20 C
Cond: protein: recombinant; label: 5' FAM (EMSA) or HEX (MST) on strand 1; blunt
Attribute measured: pKd
# pKd = -log10(concentration in molar units)

Give reported pKd value for rpsJ WT (dsDNA) DNA 1: AAAGATTGCTGATACACCAAAAACCGTTGTCAAGTATCAG DNA 2: CTGATACTTGACAACGGTTTTTGGTGTATCAGCAATCTTT
6.15
